- Study Target: Butyrylcholinesterase (Rattus norvegicus, UniProt Q9JKC1)
- Sequence (Q9JKC1 whole entry): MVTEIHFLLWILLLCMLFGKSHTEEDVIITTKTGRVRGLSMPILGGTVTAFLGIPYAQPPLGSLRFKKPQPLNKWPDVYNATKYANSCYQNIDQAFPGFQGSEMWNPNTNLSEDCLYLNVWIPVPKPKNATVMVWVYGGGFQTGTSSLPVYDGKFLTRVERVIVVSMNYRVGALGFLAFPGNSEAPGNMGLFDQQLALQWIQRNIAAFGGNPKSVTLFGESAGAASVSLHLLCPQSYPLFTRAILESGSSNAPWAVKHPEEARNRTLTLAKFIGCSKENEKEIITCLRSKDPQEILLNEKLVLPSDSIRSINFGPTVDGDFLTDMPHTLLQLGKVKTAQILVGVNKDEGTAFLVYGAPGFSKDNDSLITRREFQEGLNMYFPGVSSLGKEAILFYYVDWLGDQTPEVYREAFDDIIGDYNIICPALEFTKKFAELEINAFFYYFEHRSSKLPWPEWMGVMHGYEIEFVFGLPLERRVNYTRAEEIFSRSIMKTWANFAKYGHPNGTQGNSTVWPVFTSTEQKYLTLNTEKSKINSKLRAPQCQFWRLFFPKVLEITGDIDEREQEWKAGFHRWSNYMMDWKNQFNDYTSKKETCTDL
Reported pIC50 values for a set of compounds
The meaning of pIC50 here: minus log10 of the concentration in molar units.

Here's what some known entries look like.
[[record]]
compound = "Oc1ccc2c(n1)CCCC2NCCCCCCCCCNc1c2c(nc3ccccc13)CCCC2 (racemic)"
readout_name = "pIC50"
observed_measurement = 6.82

[[record]]
compound = "Oc1ccc2c(n1)CCCC2NCCCCNc1c2c(nc3ccccc13)CCCC2 (racemic)"
readout_name = "pIC50"
observed_measurement = 6.64

[[record]]
compound = "Oc1ccc2c(n1)CCCC2NCCCCCCNc1c2c(nc3ccccc13)CCCC2 (racemic)"
readout_name = "pIC50"
observed_measurement = 6.65


Query: Notebook entry, Butyrylcholinesterase (Rattus norvegicus, UniProt Q9JKC1) assay: pIC50 of Oc1ccc2c(n1)CCCC2NCCCCCCCNc1c2c(nc3ccccc13)CCCC2 (racemic) = ?
Response: 6.63

Query: Notebook entry, Butyrylcholinesterase (Rattus norvegicus, UniProt Q9JKC1) assay: pIC50 of Oc1ccc2c(n1)CCCC2NCCCCCNc1c2c(nc3ccccc13)CCCC2 (racemic) = ?
Response: 6.66

Query: Notebook entry, Butyrylcholinesterase (Rattus norvegicus, UniProt Q9JKC1) assay: pIC50 of O=c1ccc2c([nH]1)CCCC2NCCCCCCCCNc1c2c(nc3ccccc13)CCCC2 (racemic) = ?
Response: 6.78

Query: Notebook entry, Butyrylcholinesterase (Rattus norvegicus, UniProt Q9JKC1) assay: pIC50 of O=c1ccc2c([nH]1)CCCC2NCCCCCCCCCCCCNc1c2c(nc3ccccc13)CCCC2 (racemic) = ?
Response: 6.36

Query: Notebook entry, Butyrylcholinesterase (Rattus norvegicus, UniProt Q9JKC1) assay: pIC50 of O=c1ccc2c([nH]1)CCCC2NCCCCCCCCCCNc1c2c(nc3ccccc13)CCCC2 (racemic) = ?
Response: 7.09
